# Lookup of reported IC50 keyed by entry
molecular target: NDM-1 (Klebsiella pneumoniae)
Sequence (C7C422 29-270, looked up): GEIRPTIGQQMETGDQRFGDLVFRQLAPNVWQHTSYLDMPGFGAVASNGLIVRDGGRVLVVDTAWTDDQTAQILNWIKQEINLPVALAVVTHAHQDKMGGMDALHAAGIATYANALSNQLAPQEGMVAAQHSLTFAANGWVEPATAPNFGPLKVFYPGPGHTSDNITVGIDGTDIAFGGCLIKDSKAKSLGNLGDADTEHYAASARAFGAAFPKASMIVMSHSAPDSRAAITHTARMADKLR

CC(C)/C(C(=O)O)=C(\Cc1ccc(C(=O)NCC(N)=O)cc1)C(=O)O [Example 29] | < 10 µM
CC(C)/C(C(=O)O)=C(/C(=O)O)C(C)C [Example 11, Disodium 2,3-diisopropylmaleate] | 10 to 30 µM
CC/C(C(=O)O)=C(\Cc1ccccc1)C(=O)O [Example 4, Disodium 2-benzyl-3-ethylmaleate] | 10 to 30 µM

-- ask // lookup IC50 for CC(C)/C(C(=O)O)=C(\Cc1ccc(C(=O)O)cc1)C(=O)O [Example 25]
-- reply 10 to 30 µM

###

pIC50: −log10 of the molar value.
pIC50, NDM-1 (Klebsiella pneumoniae, UniProt C7C422): measured values

The examples below pair each entry with its known result.
CC(C)/C(C(=O)O)=C(\Cc1ccc(O)cc1)C(=O)O | 4.52 to 5.00
Cc1ccccc1C/C(C(=O)O)=C(/C(=O)O)C(C)C | 4.52 to 5.00
CC(C)/C(C(=O)O)=C(\Cc1ccc(C(=O)N2CCC(O)CC2)cc1)C(=O)O | 4.00 to 4.52
CC(C)/C(C(=O)O)=C(/C(=O)O)C1Cc2ccccc2C1 | > 5.00
O=C(O)/C(=C(\C(=O)O)C1CCOCC1)C1CCOCC1 | 4.00 to 4.52
CC(C)/C(C(=O)O)=C(\Cc1ccc(OCCn2ccnc2)cc1)C(=O)O | > 5.00
C/C(C(=O)O)=C(/C(=O)O)C(C)C [Example 9, Disodium 2-isopropyl-3-methylmaleate] | 4.00 to 4.52
CC/C(C(=O)O)=C(/C(=O)O)C1CCCC1 [Example 14, Disodium 2-cyclopentyl-3-ethylmaleate] | > 5.00
CCC/C(C(=O)O)=C(\CCC)C(=O)O [Example 2, Disodium 2,3-di-n-propylmaleate] | 4.52 to 5.00
O=C(O)/C(=C(\C(=O)O)[C@H]1CC[C@@H](O)CC1)C1CCCC1 | > 5.00

Let us examine a further case.
-- ask // lookup pIC50 for O=C(O)/C(=C(\C(=O)O)[C@H]1CC[C@@H](O)CC1)[C@H]1CC[C@@H](O)CC1
-- reply > 5.00
